Taken from ChEMBL document CHEMBL5360560.

Give measured IC50 for each item. Keep answers brief.
- System: Vibrio harveyi
- assay: Antimicrobial activity against Vibrio harveyi BB120 assessed as bacterial growth inhibition by bioluminescence based Quorum-Sensing assay
- Assay type: functional, organism-based
Answers are plain numbers, in µM.

Use these answered entries as a reference point.
COC(=O)C[C@H](O)COC(=O)/C=C/CCl: 14.6
CCCCCC(=O)NCCc1ccccc1: 99
O=C(/C=C/CCl)O[C@@H]1COC(=O)C1: 5.6

Okay, now this compound:
In: For the compound "CCOC(=O)C[C@H](O)COC(=O)/C=C/CCl" , what IC50 is on record?
Out: 17.6

----------
- System: Vibrio parahaemolyticus
- assay: Antimicrobial activity against Vibrio parahaemolyticus assessed as bacterial growth inhibition by broth dilution assay
- Type: functional
Please go through the items and note down their log10 of MIC.
# log10 transformed; quantity=MIC; unit=µM

Consider the worked cases shown below.
C=C(C)[C@H]1COc2c(C)cc3oc4c(C[C@H](O)C(C)(C)O)ccc(O)c4c(=O)c3c2[C@@H]1O [TAJIXANTHONEHYDRATE]: 0.19
CC(C)(O)[C@H](O)CC[C@]1(C)[C@@H](O)CC[C@@]2(C)[C@H]1CC[C@H]1Cc3c([nH]c4ccccc34)[C@@]12C: 0.80
C=C(C)[C@H]1COc2c(C)cc3oc4c([C@@H](OC)[C@@H](O)C(=C)C)ccc(O)c4c(=O)c3c2[C@@H]1OC(C)=O: 0.19
CO[C@@H]1CC(=O)/C=C/C[C@@H](C)OC(=O)C[C@H](O)C1: 1.40

Provide log10 of MIC for all items below, preserving their order.
1. C=C(C)[C@H]1COc2c(C)cc3oc4c(C[C@H](OC(C)=O)C(C)(C)O)ccc(O)c4c(=O)c3c2[C@@H]1O
2. CO[C@@H]1CC(=O)C/C=C/[C@@H](O)CC(=O)O[C@H](C)C1
3. C[C@@H](O)CCCCC[C@H](C)[C@@H]1C=CC(=O)O1
4. C[C@@H]1C[C@H](O)CC(=O)C/C=C/[C@@H](O)CC(=O)O1
5. C=C(C)[C@H]1COc2c(C)cc3oc4c([C@@H](OC)[C@@H](O)C(C)(C)O)ccc(O)c4c(=O)c3c2[C@@H]1OC(C)=O
6. C=C(C)[C@@H]1COc2c(C)cc3oc4c(C[C@H](OC(C)=O)C(C)(C)O)ccc(O)c4c(=O)c3c2[C@@H]1O
7. C=C(C)[C@H]1COc2c(C)cc3oc4c([C@@H](OC)[C@@H](O)C(=C)C)ccc(O)c4c(=O)c3c2[C@@H]1O
8. COc1c(Cl)c(O)cc2c1C(=O)c1c(O)cc(COC(C)=O)cc1C2=O

Out:
1. 0.19
2. 1.10
3. 1.40
4. 1.40
5. 0.19
6. 0.19
7. 0.19
8. 1.00

In: Would you kindly share the measured log10 of MIC for "CC(=O)O[C@H]1CC[C@@]2(C)[C@@H](CC[C@H]3Cc4c([nH]c5ccccc45)[C@@]32C)[C@]1(C)CC[C@@H](O)C(C)(C)O" ?
Out: 1.10

----------
- System: Vibrio harveyi
- assay: Antimicrobial activity against Vibrio harveyi assessed as bacterial growth inhibition
- Assay type: functional
endpoint name: MIC (µg/mL)
Numbers only, in µg/mL.

CC(C)=CCc1ccc(O)c(C=O)c1: 65
COc1ccc2c3c4n(c2c1)C(C=C(C)C)OOC(C)(C)C[C@@H]4N1C(=O)[C@@H]2CCCN2C(=O)[C@]1(O)[C@H]3O (stereo partly drawn): 16
O=C1N[C@@H]2c3nc4ccccc4c(=O)n3[C@H]1CC21C(=O)Nc2ccccc21 (stereo partly drawn): 16

Please report MIC for every entry that follows.
1. O=C(O)c1cn(C2CC2)c2cc(N3CCNCC3)c(F)cc2c1=O
2. C=CC(C)(C)C1(CC2NC(=O)c3ccccc3N(C)C2=O)C(=O)N(O)c2ccccc21 (stereo not drawn)
3. C/C=C/CC/C=C/c1c(O)cc(CC=C(C)C)c(O)c1C=O
4. O=C1NCc2nc3ccccc3c(=O)n2C1Cc1c[nH]c2ccccc12 (stereo not drawn)

Out:
1: 32; 2: 1; 3: 65; 4: 16

----------
- Tested on: Vibrio parahaemolyticus
- assay: Antimicrobial activity against Vibrio parahaemolyticus ATCC 17802 assessed as bacterial growth inhibition by microplate reader assay
- Format: functional
endpoint name: MIC (µM)
Answers are plain numbers, in µM.

COc1c(Cl)c(C)c(Cl)c2c1[C@H]1c3c(O)c(C)cc(O)c3C[C@H]1C(C)(C)O2 (racemic): 10

The record that follows has no MIC shown yet.
In: So what MIC did COc1c(Cl)c(C)c(Cl)c2c1[C@H]1c3c(O)c(C)cc(O)c3C[C@@H]1C(C)(C)O2 (racemic) get with Vibrio parahaemolyticus?
Out: 20

----------
- Tested on: Vibrio harveyi
- assay: Antibacterial activity against Vibrio harveyi assessed as bacterial growth inhibition
- Format: functional
endpoint name: MIC (µg/mL)
Answers are plain numbers, in µg/mL.

For orientation, consider the following solved cases.
CC(O)C(Cl)C1=C[C@H]([C@H](C)O)OC1=O (stereo partly drawn): 32
C[C@H](Cl)[C@@H](O)C1=C[C@H](O)[C@@H](C)OC1=O [CHLOROHYDROASPYRONE B]: 32
C[C@H](O)[C@H](Cl)C1=C[C@H](O)[C@@H](C)OC1=O [CHLOROHYDROASPYRONE A]: 32

Each of the following entries comes with a recorded value; kindly state MIC for each.
1. CCCCc1cc(O)c2ccccc2n1
2. CCCCCc1cc(O)c2ccccc2n1
3. C[C@H](O)/C=C1/C(=O)O[C@H]([C@@H](C)O)[C@@H]1O
4. C=C(C)C1(O)OC(=O)C=C1OC (stereo not drawn)
5. C[C@@H]1Cc2ccc(O)c(O)c2C(=O)O1

Out:
[0.5, 4, 32, 32, 32]

----------
Task for the reader: assign each of the following compounds its reported MIC.
- Test system: Vibrio parahaemolyticus
- assay: Antimicrobial activity against Vibrio parahaemolyticus assessed as bacterial growth inhibition by broth dilution assay
- Format: functional
Numbers only, in mg/L.

C/C(=C\[C@H]1OC(=O)[C@@H](C)[C@@H]1C)[C@H]1CCC2=C3C=CC4=CC(=O)CC[C@]4(C)[C@H]3CC[C@@]21C: 25
CC[C@H](C)C[C@H](C)/C=C(\C)c1cc(=O)cc(O)o1: 6.25
C/C(=C\[C@H]1OC(=O)[C@H](C)[C@@H]1C)[C@H]1CCC2=C3C=CC4=CC(=O)CC[C@]4(C)[C@H]3CC[C@@]21C: 25
COc1ccc(O)c(-c2cc(OC)ccc2O)c1: 10

Please look at the following compound next.
In: Give MIC (Vibrio parahaemolyticus) of the following compound: "COc1cc(O)c2c(c1)C(=O)C1=C(C[C@@H](O)[C@@](C)(O)C1)C2=O"
Out: 2.5
